Data origin: patent US9034918B2

# Test system: E. coli strain 9003
# test details: Antibiogram by diffusion technique (CA-SFM 2008); note: key: sensitive (S): strains for which the MIC of the antibiotic tested is less than or equal to the lower critical concentration c; resistant (R): strains for which the MIC of the antibiotic tested are greater than the upper critical concentration C; intermediate sensitivity (I): strains for which the MIC of the antibiotic tested and the corresponding diameter are between the two critical concentrations and the two critical diameters
# Type: cell-based
# Procedure: […] The sensitivity of strains to antibiotics was determined by a diffusion technique according to the 2008 recommendations by the Antibiogram Committee of the French Microbiology Society (CA-SFM). […] The tests were carried out on Mueller-Hinton agar. […] The dishes are read after 24 hours of incubation at 37° C. The raw results are then interpreted according to the interpretative reading rules of the CA-SFM.
quantity: Category

[[record]]
compound = "C[C@@H](O)[C@H]1C(=O)N2C(C(=O)O)=C(SCCN=CN)C[C@H]12 [Imipenem]"
measured = "S"

[[record]]
compound = "CC1(C)S[C@@H]2[C@H](NC(=O)[C@H](C(=O)O)c3ccsc3)C(=O)N2[C@H]1C(=O)O [Ticarcillin]"
measured = "R"

[[record]]
compound = "NC[C@H]1O[C@H](O[C@H]2[C@H](O)[C@@H](O[C@H]3O[C@H](CO)[C@@H](O)[C@H](N)[C@H]3O)[C@H](N)C[C@@H]2N)[C@H](N)C[C@@H]1O [Tobramycin]"
measured = "S"

[[record]]
compound = "CC1(C)S[C@@H]2[C@H](NC(=O)[C@H](N)c3ccc(O)cc3)C(=O)N2[C@H]1C(=O)O [Amoxicillin]"
measured = "R"


// next item, Category requested
Q. Entry under review: CCn1cc(C(=O)O)c(=O)c2cc(F)c(N3CCNCC3)cc21 [Noroxin] . Reported Category?
A. R

* * *

# Test system: Pseudomonas aeruginosa strain 8128
# test details: Antibiogram by diffusion technique (CA-SFM 2008); note: key: sensitive (S): strains for which the MIC of the antibiotic tested is less than or equal to the lower critical concentration c; resistant (R): strains for which the MIC of the antibiotic tested are greater than the upper critical concentration C; intermediate sensitivity (I): strains for which the MIC of the antibiotic tested and the corresponding diameter are between the two critical concentrations and the two critical diameters
# Type: cell-based
quantity: Cat.

Look over these answered cases.
[[record]]
molecule = "CO[C@@]1(NC(=O)Cc2cccs2)C(=O)N2C(C(=O)O)=C(COC(N)=O)CS[C@@H]21"
system = "Pseudomonas aeruginosa strain 8128"
measured = "R"

[[record]]
molecule = "CC1(C)S[C@@H]2[C@H](NC(=O)[C@H](C(=O)O)c3ccsc3)C(=O)N2[C@H]1C(=O)O"
system = "Pseudomonas aeruginosa strain 8128"
measured = "I"

[[record]]
molecule = "CO/N=C(\\C(=O)N[C@@H]1C(=O)N2C(C(=O)[O-])=C(C[N+]3(C)CCCC3)CS[C@H]12)c1csc(N)n1 [Cefepime]"
system = "Pseudomonas aeruginosa strain 8128"
measured = "S"

[[record]]
molecule = "CC(C)(O/N=C(\\C(=O)N[C@@H]1C(=O)N2C(C(=O)[O-])=C(C[n+]3ccccc3)CS[C@H]12)c1csc(N)n1)C(=O)O"
system = "Pseudomonas aeruginosa strain 8128"
measured = "S"

[[record]]
molecule = "NC[C@H]1O[C@H](O[C@H]2[C@H](O)[C@@H](O[C@H]3O[C@H](CO)[C@@H](O)[C@H](N)[C@H]3O)[C@H](N)C[C@@H]2N)[C@H](N)C[C@@H]1O"
system = "Pseudomonas aeruginosa strain 8128"
measured = "S"

[[record]]
molecule = "CC1(C)S[C@@H]2[C@H](NC(=O)[C@H](N)c3ccc(O)cc3)C(=O)N2[C@H]1C(=O)O"
system = "Pseudomonas aeruginosa strain 8128"
measured = "R"


Now examine the next entry.
Q. Give recorded Cat. with Pseudomonas aeruginosa strain 8128 for the following molecule: CCn1cc(C(=O)O)c(=O)c2ccc(C)nc21
A. R
